Every entry's value here was drawn from ChEMBL document CHEMBL5724796.

biological target: Bromodomain-containing protein 4 (Homo sapiens) (UniProt O60885); conditions: Compound concentration 20.0 uM
# cutoff -3 °C applies to ΔTm; >= gives TRUE, < gives FALSE

# STRUCTURE_AS_SMILES, LABEL_VALUE
measured = [
    ("CCS(=O)(=O)N1CCC([C@@H](C)n2c(C)c(C(=O)NCc3c(OC)cc(C)[nH]c3=O)c3ccccc32)CC1", "TRUE"),
    ("O=C1Cc2cc(C(=O)N[C@@H]3C[C@H]4CC[C@@H](C3)N4S(=O)(=O)CC3CCN(CCCC(F)(F)F)CC3)c(Cl)cc2N1", "TRUE"),
    ("O=C(NCCCCc1ccccc1)n1c(=O)oc2cc(-c3ccc(F)cc3)ccc21", "TRUE"),
]

Test whether the molecule COc1cc(O)c2c(c1)/C=C\C[C@H](O)[C@H](O)C(=O)/C=C\C[C@H](C)OC2=O records ΔTm of -3 °C or higher.
TRUE

Further, for COc1cn(-c2ccc(-n3cccn3)cc2F)nc(-c2ccnn2-c2ccccc2)c1=O ?
TRUE

Further, for C(=C\c1ccccc1)/CN1CCN(CCOC(c2ccccc2)c2ccccc2)CC1 ?
FALSE
